System: RPMI-8226 leukemia
Experiment: NCI tumour cell line growth inhibition, 48 h
ENDPOINT: TGI

Here are 4 compounds together with their reported answers.
- COMPOUND: "CCCCCCCCCCCCCCCC(=O)Nc1ccn(C2OC(CO)C(O)C2O)c(=O)n1 (stereo not given)"
  TGI: "> 100 µM"
- COMPOUND: "COc1ccc(/C=C/C(=O)c2cc(C(=O)O)c(OC)cc2OC)cc1OC"
  TGI: "> 100 µM"
- COMPOUND: "CC(=O)COC(=O)CC(C)=O"
  TGI: "> 100 µM"
- COMPOUND: "CC(=O)Oc1cn(-c2ccc(Cl)cc2)nc1C1=NN(C(C)=O)C(c2ccc(F)cc2F)O1 (stereo not given)"
  TGI: "54.8 µM"

[ask] Item under review: CCOC(=O)/C=C(\C)Sc1cc(O)c2ccccc2c1O . Reported TGI?
[reply] > 100 µM

###

Tested on: NCI-H23 lung
Experiment: NCI tumour cell line growth inhibition, 48 h
Reported TGI is given for each of the following molecules.
The figure you give is taken to be in µM; do not add the unit.

- MOLECULE: "N=c1c2c(=S)n(-c3ccccc3)c(=S)n(-c3ccccc3)c2nc(SCCCN2CCCCC2)n1-c1ccccc1"
  UNIT ANNOTATION: "µM"
  RESULT NUMBER: 3.37
- MOLECULE: "O=C1CC(Cl)c2c1csc2Br (configuration not stated)"
  UNIT ANNOTATION: "µM"
  RESULT NUMBER: 28.9

[ask] Item under review: CN1CCN(CCOc2ccc(-c3cnc4c(-c5cccc(F)c5F)cnn4c3)cc2)CC1 . Reported TGI?
[reply] 3.33

###

System: NCI-H460 lung
Test: NCI tumour cell line growth inhibition, 48 h
Reported TGI is given for each of the following compounds.
The figure you give is taken to be in µM; do not add the unit.

- COMPOUND: "CCOC(=O)C(=Cc1ccc(-c2ccccc2)cc1)C(=O)OCC"
  TGI [µM]: 17.2

[ask] API: value(readout= TGI, system= NCI-H460 lung, query= CC(=O)O[C@@H]1C(C2CCCCC2)C=[N+]([O-])O[C@@H]1OC1CCCC1(c1ccccc1)c1ccccc1 (some centres undefined) )
[reply] 30

[ask] Can you check C=C1C(=O)O[C@H]2[C@H]1CC/C(COC(=O)NCc1ccc(Cn3c(=O)sn(CCCC)c3=O)cc1)=C\CC[C@@]1(C)O[C@@H]21 next?
[reply] 19.6

[ask] Can you check Cc1cc2nc(CS)[nH]c2cc1C next?
[reply] 54.6

###

Reported TGI is given for each of the following compounds.
Tested on: NCI-H226 lung
Test: NCI tumour cell line growth inhibition, 48 h

[ask] Item under review: O=C(C(Cl)Cl)N(O)c1ccccc1OCc1ccccc1 . Reported TGI?
[reply] > 100 µM

[ask] Can you check CC(=O)NC(CCCN(Cc1ccccc1)C(=O)NCCCl)C(=O)NCc1ccccc1 (stereo not given) next?
[reply] > 100 µM

[ask] Can you check O=c1cc(NNc2ccc(F)cc2)[nH]c(=O)[nH]1 next?
[reply] 57.4 µM

[ask] Can you check O=C(c1ccccc1)N(C(=S)NCCc1ccc(Cl)cc1)c1ccc(Cl)cc1 next?
[reply] 39.4 µM

[ask] Can you check C[n+]1c2ccccc2c2/c(=C\C#N)c3ccccc3n21 next?
[reply] 17.6 µM

[ask] Can you check Cc1ccc(/C(O)=C/c2nc3ccccc3[nH]c2=O)cc1 next?
[reply] 6.4 µM

[ask] Can you check CC(CCc1ccccc1)NCC(O)n1c(/N=N/N(C)C)nc2c1c(=O)n(C)c(=O)n2C (stereo not given) next?
[reply] > 100 µM

[ask] Can you check Cc1ccc(NN=NCCCCN=NNc2ccc(C)cc2)cc1 next?
[reply] > 100 µM

[ask] Can you check CC(=O)c1c(-c2ccc(Cl)cc2)c(C#N)c(=S)n(C2OC(CO)C(O)C(O)C2O)c1-c1ccccc1 (stereo not given) next?
[reply] > 100 µM

[ask] Can you check CCOP(=O)(OCC)/C(=C\n1c(=S)[nH]c2cc(C)ccc21)C(=O)OC next?
[reply] > 100 µM

The reported measurements were obtained from PubChem BioAssay (NCI).
